Values were extracted from paper PMC2362044.

tested on: SW480 cells; assay: Colorimetric survival (MTT) assay after photo-irradiation, normoxia; type: cell-based; details: Homo sapiens; SW480, 3 h incubation, 16 J cm^−2; read-out: EC50 (M) (16 J cm^−2)
quantity-name: EC50 (M)

| smiles-repr | quantity-name | unit | value-measured |
| --- | --- | --- | --- |
| F[B-]1(F)n2c(-c3ccccc3)cc(-c3ccccc3)c2N=C2C(c3ccccc3)=CC(c3ccccc3)=[N+]21 | EC50 | M | 8e-07 |
| COc1ccc(C2=[N+]3C(=Nc4c(-c5ccccc5)c(Br)c(-c5ccc(OC)cc5)n4[B-]3(F)F)C(c3ccccc3)=C2Br)cc1 | EC50 | M | 4.2e-08 |
